The measurements presented in this section are drawn from patent US20250250357A1.

system.name: T1, human MSLN-R3-his protein (human, UniProt Q13421 487-598)
T1 construct: Made in HEK293E cells, purified on nickel column; also called hMSLN-R3-his; human MSLN-R3 protein; not shown: His tag
protocol: ELISA, coated antigen, antibody 0.001 nM

binder	OD450
S009-F6-76.1 chimeric antibody (antibody, human IgG1, kappa, V domains shown, Human-murine chimeric antibody, human IgG1/kappa constant regions) VH: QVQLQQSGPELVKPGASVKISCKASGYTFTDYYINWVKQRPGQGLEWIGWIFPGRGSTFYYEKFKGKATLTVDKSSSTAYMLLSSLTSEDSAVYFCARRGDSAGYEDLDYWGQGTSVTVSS VL: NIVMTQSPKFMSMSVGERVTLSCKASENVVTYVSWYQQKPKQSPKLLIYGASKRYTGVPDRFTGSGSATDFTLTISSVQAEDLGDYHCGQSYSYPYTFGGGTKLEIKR	0.05
Tab106 (YP218, hIgG1) (antibody, V domains shown, Control: YP218 VH and VL recombined into human IgG1 CH and CL expression vectors; also called YP218 human IgG1 antibody) VH: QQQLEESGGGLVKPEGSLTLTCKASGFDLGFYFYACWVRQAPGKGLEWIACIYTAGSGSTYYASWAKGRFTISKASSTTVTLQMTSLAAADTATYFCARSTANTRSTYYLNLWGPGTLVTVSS VL: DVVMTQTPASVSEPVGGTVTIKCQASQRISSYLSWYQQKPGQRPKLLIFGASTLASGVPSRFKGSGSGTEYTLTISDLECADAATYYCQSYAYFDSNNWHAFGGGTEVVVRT	0.06
S009-F5-9.16 chimeric antibody (antibody, human IgG1, kappa, V domains shown, Human-murine chimeric antibody, human IgG1/kappa constant regions) VH: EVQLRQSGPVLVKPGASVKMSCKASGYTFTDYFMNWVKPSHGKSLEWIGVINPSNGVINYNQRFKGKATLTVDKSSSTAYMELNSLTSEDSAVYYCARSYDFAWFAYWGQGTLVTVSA VL: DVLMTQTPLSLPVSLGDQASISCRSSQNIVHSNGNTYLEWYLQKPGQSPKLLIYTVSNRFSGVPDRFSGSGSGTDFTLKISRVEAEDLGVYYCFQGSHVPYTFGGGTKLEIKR	0.26
S009-F4-94.15 chimeric antibody (antibody, human IgG1, kappa, V domains shown, Human-murine chimeric antibody: murine VH/VL on human IgG1 heavy and kappa light constant regions) VH: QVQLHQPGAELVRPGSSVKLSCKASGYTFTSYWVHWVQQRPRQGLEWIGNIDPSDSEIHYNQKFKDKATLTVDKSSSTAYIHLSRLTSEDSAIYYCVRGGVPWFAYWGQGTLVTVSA VL: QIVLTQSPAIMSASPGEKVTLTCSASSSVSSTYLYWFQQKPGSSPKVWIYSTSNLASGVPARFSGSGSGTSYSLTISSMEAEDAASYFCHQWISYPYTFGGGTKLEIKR	0.05
